Origin of the recorded values: patent US20250122218A1

- Test target: CFTR in F508del/MF-HBE cells (Homo sapiens, UniProt P13569, DEL508-508)
- Construct: human bronchial epithelial (HBE) cells derived from CF subjects heterozygous for F508del and a minimal function CFTR mutation; endogenous in cells
- Sequence (P13569 with tags, fused parts or gaps DEL508-508): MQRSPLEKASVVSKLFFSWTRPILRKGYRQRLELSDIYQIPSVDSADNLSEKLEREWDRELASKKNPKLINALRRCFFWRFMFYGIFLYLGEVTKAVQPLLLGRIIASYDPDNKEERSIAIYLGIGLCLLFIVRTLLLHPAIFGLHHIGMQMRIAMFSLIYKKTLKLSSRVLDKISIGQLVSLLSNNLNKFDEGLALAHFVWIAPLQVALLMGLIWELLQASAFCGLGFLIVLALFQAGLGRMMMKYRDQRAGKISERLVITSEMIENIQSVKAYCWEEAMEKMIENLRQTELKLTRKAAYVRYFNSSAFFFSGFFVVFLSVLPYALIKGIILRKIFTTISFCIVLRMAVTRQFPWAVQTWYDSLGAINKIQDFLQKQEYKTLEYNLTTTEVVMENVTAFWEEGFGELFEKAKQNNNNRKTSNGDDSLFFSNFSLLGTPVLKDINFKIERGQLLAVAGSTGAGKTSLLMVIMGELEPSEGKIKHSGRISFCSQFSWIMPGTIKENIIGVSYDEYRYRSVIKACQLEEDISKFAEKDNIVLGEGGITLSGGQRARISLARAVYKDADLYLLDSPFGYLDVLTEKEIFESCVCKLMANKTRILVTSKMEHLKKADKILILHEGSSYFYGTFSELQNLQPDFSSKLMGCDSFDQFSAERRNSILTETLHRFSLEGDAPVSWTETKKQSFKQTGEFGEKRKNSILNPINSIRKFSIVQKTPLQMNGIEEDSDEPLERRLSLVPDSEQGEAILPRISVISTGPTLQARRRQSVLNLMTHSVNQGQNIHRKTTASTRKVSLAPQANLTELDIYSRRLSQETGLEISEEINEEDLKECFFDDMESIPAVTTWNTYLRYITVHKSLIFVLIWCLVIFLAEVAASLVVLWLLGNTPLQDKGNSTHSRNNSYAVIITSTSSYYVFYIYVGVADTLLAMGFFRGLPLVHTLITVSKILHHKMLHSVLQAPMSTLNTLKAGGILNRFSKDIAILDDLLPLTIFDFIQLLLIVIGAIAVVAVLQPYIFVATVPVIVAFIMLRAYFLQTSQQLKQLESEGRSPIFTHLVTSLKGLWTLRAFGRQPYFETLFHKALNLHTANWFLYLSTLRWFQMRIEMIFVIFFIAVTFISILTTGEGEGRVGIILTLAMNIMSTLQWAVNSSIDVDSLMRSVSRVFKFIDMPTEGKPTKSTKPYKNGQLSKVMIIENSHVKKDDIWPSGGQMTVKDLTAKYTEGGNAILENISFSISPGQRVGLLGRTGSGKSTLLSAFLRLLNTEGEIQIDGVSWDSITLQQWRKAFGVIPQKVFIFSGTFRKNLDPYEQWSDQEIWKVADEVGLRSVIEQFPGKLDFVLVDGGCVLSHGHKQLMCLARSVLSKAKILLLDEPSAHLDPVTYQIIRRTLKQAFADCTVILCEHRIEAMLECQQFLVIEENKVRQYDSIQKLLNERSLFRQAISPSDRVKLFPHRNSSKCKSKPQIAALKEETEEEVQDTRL
- Procedure details: Ussing chamber assay of CFTR-mediated short-circuit currents (identification of potentiator compounds)
- Assay context: potentiator incubated 18-24 hours at 37° C. in combination with 10 μM corrector, in the presence of 20% human serum, CFTR-mediated ISC
pEC50: −log10 of the molar value.
Reported metric: pEC50

// known answers, use as guide
Nc1cc(C(F)(F)F)c2nc1-c1nnc(o1)C(F)(C(F)(F)F)CCCCCCC2=O (single isomer, unassigned): < 6.00
Nc1cc(C(F)(F)F)c2nc1-c1nnc(o1)[C@@](O)(C(F)(F)F)CCCCCCC2=NO (single isomer, unassigned): > 6.30

Query block: Quick one: pEC50 of `Nc1cc(C(F)(F)F)c2nc1-c1nnc(o1)[C@@](O)(C(F)(F)F)CCCC(=O)CCC2(F)F` ?
Result block: > 6.30
